Listed compounds paired with reported pKi
biological target: Muscarinic acetylcholine receptor M3 (Homo sapiens); experiment: Displacement of [3H]-NMS from human recombinant M3 receptor expressed in CHO cells after 2 hrs by filter binding assay; assay type: cell-based
Sequence (P20309 whole entry): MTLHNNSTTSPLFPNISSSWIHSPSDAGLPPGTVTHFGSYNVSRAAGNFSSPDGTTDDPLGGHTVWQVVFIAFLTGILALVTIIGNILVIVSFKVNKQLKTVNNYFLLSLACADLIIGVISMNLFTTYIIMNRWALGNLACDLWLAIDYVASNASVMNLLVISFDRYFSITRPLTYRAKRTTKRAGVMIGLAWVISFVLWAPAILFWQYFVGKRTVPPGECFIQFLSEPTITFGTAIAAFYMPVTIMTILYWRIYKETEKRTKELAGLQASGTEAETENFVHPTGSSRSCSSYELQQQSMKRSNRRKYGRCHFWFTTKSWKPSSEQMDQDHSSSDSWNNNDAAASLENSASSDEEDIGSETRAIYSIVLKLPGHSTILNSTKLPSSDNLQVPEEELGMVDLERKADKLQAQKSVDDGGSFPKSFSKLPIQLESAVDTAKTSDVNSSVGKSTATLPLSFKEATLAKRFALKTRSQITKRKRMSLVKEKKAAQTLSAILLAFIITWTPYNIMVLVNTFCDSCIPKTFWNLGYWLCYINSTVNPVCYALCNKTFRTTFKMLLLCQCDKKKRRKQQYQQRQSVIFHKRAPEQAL
Please report pKi as the negative decimal logarithm of the molar concentration, giving only the number.

# annotated cases, reported pKi shown
• CC(C)(CCC(C(N)=O)(c1ccccc1)c1ccccc1)N1CC[C@@H](Oc2ccccc2)C1 = 8.19
• CC(C)(CCC(C(N)=O)(c1ccccc1)c1ccccc1)N1CCC(Oc2ccccc2)CC1 = 8.41

// Input: CC(C)(CCC(C(N)=O)(c1ccccc1)c1ccccc1)N1CC[C@H](Oc2ccccc2)C1 . Output its pKi only.
8.74

Quickly give me recorded pKi for CC(C)(CCC(C(N)=O)(c1ccccc1)c1ccccc1)N1CC(Oc2ccccc2)C1
9.96

Give the reported value of pKi for this record: NC(=O)C(CCCN1CC[C@H](Oc2ccccc2)C1)(c1ccccc1)c1ccccc1
8.72

* * *

Recorded measurements of microsomal CLint, one per entry
experiment: Intrinsic clearance in human liver microsomes assessed per mg of protein in presence of NADPH
Your answer should be a plain number; it is taken to be in µL/min/mg.

Here is how some molecules turned out for microsomal CLint.
• CC(C)(CCC(C(N)=O)(c1ccccc1)c1ccccc1)N1CC(Oc2cc(O)cc(F)c2)C1 = 176
• CC(C)(CCC(C(N)=O)(c1ccccc1)c1ccccc1)N1CC(OCc2cccc(O)c2)C1 = 364
• CC(C)(CCC(C(N)=O)(c1ccccc1)c1ccccc1)N1CC(Oc2cc(O)cc(Cl)c2)C1 = 361

Shift focus to the following entry.
Note down microsomal CLint recorded for CC(C)(CCC(C(N)=O)(c1ccccc1)c1ccccc1)N1CC(Oc2ccc(Cl)c(O)c2)C1
116

* * *

# maps each entry to its T1/2
target: Muscarinic acetylcholine receptor M3 (Homo sapiens); settings: CHO
Sequence (P20309 whole entry, looked up): as the sequence (P20309 whole entry) above

• CC(C)(CCC(C(N)=O)(c1ccccc1)c1ccccc1)N1CCC(Oc2ccccc2)CC1 = 17.5 h
• CC(C)(CCC(C(N)=O)(c1ccccc1)c1ccccc1)N1CC(Oc2cccc(O)c2)C1 [PF-03635659] = > 24 h
• CC(C)(CCC(C(N)=O)(c1ccccc1)c1ccccc1)N1CC(Oc2ccc(Cl)c(O)c2)C1 = 23.5 h

Note: attention shifts to another entry.
Please report the measured T1/2 for CC(C)(CCC(C(N)=O)(c1ccccc1)c1ccccc1)N1CC[C@H](Oc2ccccc2)C1 tested on Muscarinic acetylcholine receptor M3 (Homo sapiens).
> 24 h

* * *

tested on: MDR1; test: Apparent permeability across basal to apical side in dog MDCK expressing MDR1; type: ADME, cell-based, Canis lupus familiaris
measurement.label: Papp B→A (×10⁻⁶ cm/s)
Lab book: enter the figure in ×10⁻⁶ cm/s, no units written.

Consider the compound CC(C)(CCC(C(N)=O)(c1ccccc1)c1ccccc1)N1CC(Oc2cccc(O)c2)C1 tested on MDR1; state its Papp B→A.
64

* * *

biological target: Muscarinic acetylcholine receptor M3 (Homo sapiens, UniProt P20309); assay: Antagonist activity at human recombinant M3 receptor expressed in CHO-K1 cells assessed as inhibition of carbamoyl choline-induced calcium currents after 4 hrs by fluorimetry; assay type: functional, cell-based
pKi: −log10 of the molar value.
Would you mind labelling by pKi? At or over 9 is 1, under is 0.

• CC(C)(CCC(C(N)=O)(c1ccccc1)c1ccccc1)N1CC[C@H](Oc2ccccc2)C1 = 1
• NC(=O)C(CCCN1CC[C@H](Oc2ccccc2)C1)(c1ccccc1)c1ccccc1 = 0
• CC(C)(CCC(C(N)=O)(c1ccccc1)c1ccccc1)N1CC[C@H](Oc2ccc(Cl)c(O)c2)C1 = 0
• CC(C)(CCC(C(N)=O)(c1ccccc1)c1ccccc1)N1CC(OCc2cccc(O)c2)C1 = 1

Hello, I need to know if CC(C)(CCC(C(N)=O)(c1ccccc1)c1ccccc1)N1CC(Oc2ccc(Cl)c(O)c2)C1 has measured pKi not below 9. Thanks!
0

Determine whether this compound has pKi no lower than 9: CC(C)(CCC(C(N)=O)(c1ccccc1)c1ccccc1)N1CC(Oc2cc(O)cc(Cl)c2)C1
1

Entry CC(C)(CCC(C(N)=O)(c1ccccc1)c1ccccc1)N1CC(Oc2ccccc2O)C1 : is its pKi no less than 9?
0

* * *

tested on: MDR1; test: Apparent permeability across apical to basal side in dog MDCK expressing MDR1; format: ADME, cell-based, Canis lupus familiaris
measurement.label: Papp A→B (×10⁻⁶ cm/s)
Please reply with the bare figure in ×10⁻⁶ cm/s and do not write the unit itself.

Using the record for CC(C)(CCC(C(N)=O)(c1ccccc1)c1ccccc1)N1CC(Oc2cccc(O)c2)C1 , state its measured Papp A→B.
7

* * *

assay: Intrinsic clearance in human hepatocytes assessed per million cells
List of hepatocyte CLint values.
Please give the number followed by its unit.

Please review the following examples before continuing.
- CC(C)(CCC(C(N)=O)(c1ccccc1)c1ccccc1)N1CC(Oc2ccc(Cl)c(O)c2)C1: 159 µL/min/1e6 cells
- CC(C)(CCC(C(N)=O)(c1ccccc1)c1ccccc1)N1CC[C@@H](Oc2cc(O)cc(F)c2)C1: 114 µL/min/1e6 cells
- CC(C)(CCC(C(N)=O)(c1ccccc1)c1ccccc1)N1CC(OCc2cccc(O)c2)C1: 34 µL/min/1e6 cells
- CC(C)(CCC(C(N)=O)(c1ccccc1)c1ccccc1)N1CC(Oc2cccc(O)c2)C1 [PF-03635659]: 96 µL/min/1e6 cells

Let us examine a further case.
Give hepatocyte CLint for CC(C)(CCC(C(N)=O)(c1ccccc1)c1ccccc1)N1CC(Oc2cc(O)cc(Cl)c2)C1
116 µL/min/1e6 cells

* * *

target: Muscarinic acetylcholine receptor M3 (Homo sapiens, UniProt P20309); test: Displacement of [3H]-NMS from human recombinant M3 receptor expressed in CHO cells after 24 hrs by filter binding assay; type: cell-based
measurement.label: Ki (nM)
Give the value in nM but do not write nM after it.

Let me know recorded Ki for CC(C)(CCC(C(N)=O)(c1ccccc1)c1ccccc1)N1CC(Oc2cccc(O)c2)C1 , thanks.
0.128

* * *

test: Half life in iv dosed rat; assay type: ADME, organism-based; conditions: in vivo
measurement.label: half-life (min)
The reply should be a number in min, with the unit left off.

Note half-life for the compound shown: CC(C)(CCC(C(N)=O)(c1ccccc1)c1ccccc1)N1CC(Oc2cccc(O)c2)C1 [PF-03635659]
54

* * *

test: Apparent permeability across apical to basolateral side in human Caco2 cells; type: ADME, cell-based; conditions: Caco-2
measurement.label: Papp A→B

State its Papp A→B: CC(C)(CCC(C(N)=O)(c1ccccc1)c1ccccc1)N1CC[C@H](Oc2ccccc2)C1
16 ×10⁻⁶ cm/s

* * *

assay: Volume of distribution at steady state in iv dosed rat; format: ADME, organism-based; details: in vivo, read-out: Vdss
measurement.label: Vd (L/kg)
Output spec: scalar in L/kg, unitless text.

Quick one: give measured Vd for CC(C)(CCC(C(N)=O)(c1ccccc1)c1ccccc1)N1CC(Oc2cccc(O)c2)C1 [PF-03635659]
8.4

* * *

target: Muscarinic acetylcholine receptor M3 (Cavia porcellus, UniProt Q8VH26); assay: Antagonist activity at M3 receptor in Dunkin-Hartley guinea pig tracheal strips assessed as inhibition of electrically field-stimulated contractile response after 8 hrs
Sequence (Q8VH26 whole entry): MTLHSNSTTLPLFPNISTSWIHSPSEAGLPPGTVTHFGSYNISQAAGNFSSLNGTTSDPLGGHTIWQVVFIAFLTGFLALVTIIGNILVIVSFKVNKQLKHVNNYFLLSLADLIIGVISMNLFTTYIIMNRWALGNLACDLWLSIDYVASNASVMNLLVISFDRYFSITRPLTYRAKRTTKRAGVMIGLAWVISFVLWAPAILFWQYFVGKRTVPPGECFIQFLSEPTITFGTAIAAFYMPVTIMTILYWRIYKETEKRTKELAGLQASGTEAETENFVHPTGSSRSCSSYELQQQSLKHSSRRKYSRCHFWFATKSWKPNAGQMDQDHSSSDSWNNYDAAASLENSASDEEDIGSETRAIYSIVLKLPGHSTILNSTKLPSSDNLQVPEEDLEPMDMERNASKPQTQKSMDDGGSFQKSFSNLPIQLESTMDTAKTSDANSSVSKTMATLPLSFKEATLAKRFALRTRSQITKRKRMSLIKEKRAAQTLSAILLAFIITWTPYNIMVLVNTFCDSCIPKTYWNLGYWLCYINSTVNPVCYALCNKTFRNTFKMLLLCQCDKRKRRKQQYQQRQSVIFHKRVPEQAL
measurement.label: IC50 (nM)
Kindly answer with a numeric value in nM, unit omitted.

These solved cases illustrate the format of a correct answer.
• CC(C)(CCC(C(N)=O)(c1ccccc1)c1ccccc1)N1CC(Oc2cccc(O)c2)C1 [PF-03635659] = 1.53
• CC(C)(CCC(C(N)=O)(c1ccccc1)c1ccccc1)N1CC(Oc2cccc(O)c2F)C1 = 3.48
• CC(C)(CCC(C(N)=O)(c1ccccc1)c1ccccc1)N1CC[C@@H](Oc2cccc(O)c2)C1 = 3.87

Provide measured IC50 value, entry: CC(C)(CCC(C(N)=O)(c1ccccc1)c1ccccc1)N1CC[C@H](Oc2cccc(O)c2)C1
4.3

* * *

Target: UniProtKB P08172
Sequence (P08172 whole entry): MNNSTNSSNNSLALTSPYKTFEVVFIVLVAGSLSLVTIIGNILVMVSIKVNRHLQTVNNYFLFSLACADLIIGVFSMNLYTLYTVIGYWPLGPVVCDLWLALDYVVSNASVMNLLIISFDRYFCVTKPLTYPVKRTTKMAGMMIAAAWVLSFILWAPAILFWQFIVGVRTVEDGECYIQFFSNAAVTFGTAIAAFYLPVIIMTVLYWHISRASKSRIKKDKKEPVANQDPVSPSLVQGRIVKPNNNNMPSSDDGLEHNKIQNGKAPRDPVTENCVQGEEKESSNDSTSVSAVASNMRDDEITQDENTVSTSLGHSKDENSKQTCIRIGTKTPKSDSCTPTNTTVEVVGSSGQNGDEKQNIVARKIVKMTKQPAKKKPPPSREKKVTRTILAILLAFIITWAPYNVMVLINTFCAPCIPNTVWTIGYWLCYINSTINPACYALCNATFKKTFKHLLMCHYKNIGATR
Experiment: Displacement of [3H]-NMS from human recombinant M2 receptor expressed in CHO cells after 24 hrs by filter binding assay
Assay type: cell-based
measurement.label: pKi
In plain terms, pKi is the concentration in mol/L turned into minus its base-10 logarithm.

Report measured pKi on UniProtKB P08172; entry: CC(C)(CCC(C(N)=O)(c1ccccc1)c1ccccc1)N1CC(Oc2cccc(O)c2)C1
9.86
